The measured values listed here are drawn from the Immune Epitope Database (IEDB).

TESTED SYSTEM: HLA-B*15:17
METHOD NOTES: IEDB peptide-MHC binding, purified MHC/direct/fluorescence; filed as Kd, often an IC50 or EC50 that approximates it; bounds were set here for any values at or beyond the usual limits of such assays
TEST SETTINGS: source organism: Yellow fever virus
READOUT NAME: Kd (nM)
Numbers only, in nM.

Field request: Kd | item: ESWIVDRQW
135

----------
TESTED SYSTEM: HLA-B*83:01
METHOD NOTES: IEDB peptide-MHC binding, purified MHC/competitive/fluorescence; filed as Kd, often an IC50 or EC50 that approximates it; bounds were set here for any values at or beyond the usual limits of such assays
TEST SETTINGS: source organism: Yersinia pseudotuberculosis IP 31758
READOUT NAME: Kd (nM)
Give bare numbers, in nM.

Field request: Kd | item: FQWWRSHPL
475

----------
TESTED SYSTEM: HLA-C*15:02
METHOD NOTES: IEDB peptide-MHC binding, purified MHC/direct/fluorescence; filed as Kd, often an IC50 or EC50 that approximates it; bounds were set here for any values at or beyond the usual limits of such assays
TEST SETTINGS: source organism: Cytophaga hutchinsonii ATCC 33406
pKd: −log10 of the molar value.
READOUT NAME: pKd

Field request: pKd | item: GLADAFILL
≤ 4.70

----------
TESTED SYSTEM: HLA-A*02:03
METHOD NOTES: IEDB peptide-MHC binding, purified MHC/competitive/radioactivity; filed as Kd, often an IC50 or EC50 that approximates it; bounds were set here for any values at or beyond the usual limits of such assays
TEST SETTINGS: source organism: Vaccinia virus WR
pKd: −log10 of the molar value.
Think of 7 as a floor: if pKd stands on it or above, it is met; beneath it, not met.

Some entries whose results are on file:
EIDVSEVKTL not met
CLKNEGVSGL met
QLMYDIINSV met

Does PASISSVLT have a reported pKd of at least 7?
not met

Also SLVYGIRCV , if possible.
met

Also STCYVFGLY , if possible.
not met

Also VMHINSPFKV , if possible.
met

Also LIQYRQQLEL , if possible.
not met

----------
TESTED SYSTEM: HLA-B*35:01
METHOD NOTES: IEDB peptide-MHC binding, purified MHC/competitive/radioactivity; filed as Kd, often an IC50 or EC50 that approximates it; bounds were set here for any values at or beyond the usual limits of such assays
TEST SETTINGS: source organism: Triticum aestivum
READOUT NAME: Kd (nM)
Numbers only, in nM.

Provide value of Kd for this record tested with HLA-B*35:01: QPFRPQQPY
296

----------
TESTED SYSTEM: HLA-A*31:01
METHOD NOTES: IEDB peptide-MHC binding, purified MHC/direct/fluorescence; filed as Kd, often an IC50 or EC50 that approximates it; bounds were set here for any values at or beyond the usual limits of such assays
TEST SETTINGS: source organism: Salmonella enterica
READOUT NAME: Kd (nM)
Give bare numbers, in nM.

Field request: Kd | item: MGKTITDVK
1570

----------
TESTED SYSTEM: HLA-B*15:01
METHOD NOTES: IEDB peptide-MHC binding, purified MHC/competitive/fluorescence; filed as Kd, often an IC50 or EC50 that approximates it; bounds were set here for any values at or beyond the usual limits of such assays
TEST SETTINGS: source organism: Vibrio cholerae 2740-80
READOUT NAME: Kd

Field request: Kd | item: YEPEMQAQV
≥ 20 µM

----------
TESTED SYSTEM: HLA-A*68:02
METHOD NOTES: IEDB peptide-MHC binding, purified MHC/competitive/radioactivity; filed as Kd, often an IC50 or EC50 that approximates it; bounds were set here for any values at or beyond the usual limits of such assays
TEST SETTINGS: source organism: Dengue virus 3 Martinique/1243/1999
Task for the reader: assign each of the following sequences its reported Kd.
Answers are plain numbers, in nM.

For orientation, consider the following solved cases.
ETYQLWTAL 3.39
TSIGLICVIA 35.5

Look at each sequence and report its Kd.
1. GVFHTMWHV
2. CSAVPVHWV

1. 7.01
2. 11.1

----------
TESTED SYSTEM: HLA-A*68:02
METHOD NOTES: IEDB peptide-MHC binding, purified MHC/direct/fluorescence; filed as Kd, often an IC50 or EC50 that approximates it; bounds were set here for any values at or beyond the usual limits of such assays
TEST SETTINGS: source organism: Cryptosporidium parvum Iowa II
READOUT NAME: Kd

Field request: Kd | item: TVFRNQNRV
≤ 1 nM

----------
TESTED SYSTEM: HLA-A*03:01
METHOD NOTES: IEDB peptide-MHC binding, purified MHC/direct/fluorescence; filed as Kd, often an IC50 or EC50 that approximates it; bounds were set here for any values at or beyond the usual limits of such assays
TEST SETTINGS: source organism: Corynebacterium glutamicum
pKd: −log10 of the molar value.
READOUT NAME: pKd

Field request: pKd | item: WPALSSIAA
≤ 4.70

----------
TESTED SYSTEM: HLA-A*02:01
METHOD NOTES: IEDB peptide-MHC binding, purified MHC/competitive/fluorescence; filed as Kd, often an IC50 or EC50 that approximates it; bounds were set here for any values at or beyond the usual limits of such assays
TEST SETTINGS: source organism: Brucella suis ATCC 23445
pKd: −log10 of the molar value.
READOUT NAME: pKd

Field request: pKd | item: ITAVNRYFK
≤ 4.70

----------
TESTED SYSTEM: HLA-A*23:01
METHOD NOTES: IEDB peptide-MHC binding, purified MHC/competitive/fluorescence; filed as Kd, often an IC50 or EC50 that approximates it; bounds were set here for any values at or beyond the usual limits of such assays
TEST SETTINGS: source organism: Bacillus anthracis str. Ames
READOUT NAME: Kd

Provide value of Kd for this record tested with HLA-A*23:01: VILYFMYRK
≥ 20 µM

----------
TESTED SYSTEM: HLA-A*03:01
METHOD NOTES: IEDB peptide-MHC binding, purified MHC/competitive/radioactivity; filed as Kd, often an IC50 or EC50 that approximates it; bounds were set here for any values at or beyond the usual limits of such assays
TEST SETTINGS: source organism: Mammarenavirus juninense
Task for the reader: assign each of the following sequences its reported Kd.
Answers are plain numbers, in nM.

MRYTCLNSEK 283

Here is another sequence to look at.
Field request: Kd | item: TVFFTASLFL
1330

----------
TESTED SYSTEM: HLA-A*26:01
METHOD NOTES: IEDB peptide-MHC binding, purified MHC/competitive/fluorescence; filed as Kd, often an IC50 or EC50 that approximates it; bounds were set here for any values at or beyond the usual limits of such assays
TEST SETTINGS: source organism: Orthohantavirus sinnombreense
READOUT NAME: Kd

Field request: Kd | item: YRTLGVFRY
≥ 20 µM

----------
TESTED SYSTEM: HLA-A*03:01
METHOD NOTES: IEDB peptide-MHC binding, purified MHC/direct/fluorescence; filed as Kd, often an IC50 or EC50 that approximates it; bounds were set here for any values at or beyond the usual limits of such assays
TEST SETTINGS: source organism: Mammarenavirus juninense
READOUT NAME: Kd

Field request: Kd | item: QLAKRSEIL
≥ 20 µM

----------
TESTED SYSTEM: HLA-A*02:03
METHOD NOTES: IEDB peptide-MHC binding, purified MHC/competitive/radioactivity; filed as Kd, often an IC50 or EC50 that approximates it; bounds were set here for any values at or beyond the usual limits of such assays
TEST SETTINGS: source organism: Lymphocytic choriomeningitis virus (strain Armstrong)
READOUT NAME: pKd
Answers are plain numbers, as −log10 of the molar value.

Field request: pKd | item: NSLILLECFV
7.33

----------
TESTED SYSTEM: HLA-A*02:03
METHOD NOTES: IEDB peptide-MHC binding, purified MHC/competitive/radioactivity; filed as Kd, often an IC50 or EC50 that approximates it; bounds were set here for any values at or beyond the usual limits of such assays
TEST SETTINGS: source organism: Dengue virus 4 Philippines/H241/1956
Task for the reader: assign each of the following sequences its reported log10(Kd).
In plain terms, each number is the log10 of measured Kd in nM.

For orientation, consider the following solved cases.
LLAGFMAYM 1.84
FMAYMIGQT 0.78
GLFGKTQVGV -0.26
FMKDGRSLV 1.21

Look at each sequence and report its log10(Kd).
1. GMAMTTVLSI
2. LLVKLALITV
3. YLSSRAKLA

1: 0.81; 2: -0.74; 3: 1.56
